Below, each entry is listed with its recorded Cmax.
Test: Pharmacokinetics following intravenous administration in beagle dogs
Assay type: in vivo
Details: 1.4 mg/kg IV slow bolus
Please reply with the bare figure in µg/mL and do not write the unit itself.

compound	Cmax [µg/mL]
CCCCCOc1ccc(-c2ccc(-c3ccc(C(=O)NC4CC(O)C(OCCOCCOC)NC(=O)C5C(O)C(C)CN5C(=O)C(C(C)O)NC(=O)C(C(O)C(O)c5ccc(O)cc5)NC(=O)C5CC(O)CN5C(=O)C(C(C)O)NC4=O)cc3)cc2)cc1 (stereo not shown) [Compound 19]	7.7
CCCCCOc1ccc(-c2ccc(-c3ccc(C(=O)NC4CC(O)C(OCCOCCO)NC(=O)C5C(O)C(C)CN5C(=O)C(C(C)O)NC(=O)C(C(O)C(O)c5ccc(O)cc5)NC(=O)C5CC(O)CN5C(=O)C(C(C)O)NC4=O)cc3)cc2)cc1 (stereo not shown) [Compound 21]	6.74
CCCCCOc1ccc(-c2ccc(-c3ccc(C(=O)NC4CC(O)C(NCC[N+](C)(C)C)NC(=O)C5C(O)C(C)CN5C(=O)C(C(C)O)NC(=O)C(C(O)C(O)c5ccc(O)cc5)NC(=O)C5CC(O)CN5C(=O)C(C(C)O)NC4=O)cc3)cc2)cc1 (stereo not shown) [Compound 37]	2.66

We next turn to a different compound, shown below.
Request: Name the reported Cmax value associated with the compound CC(=O)[O-].CCCCCOc1ccc(-c2ccc(-c3ccc(C(=O)NC4CC(O)C(OCC[N+](C)(C)C)NC(=O)C5C(O)C(C)CN5C(=O)C(C(C)O)NC(=O)C(C(O)C(O)c5ccc(O)cc5)NC(=O)C5CC(O)CN5C(=O)C(C(C)O)NC4=O)cc3)cc2)cc1 (stereo not shown) [Compound 22]
Result: 1.57

* * *

Experiment: Pharmacokinetics in chimpanzee, IV dose
Conditions: female, in vivo; chimpanzees, 1-mg/kg IV 60-minute infusion, mean of 2 chimps; read-out: Clearance (converted)
Method: Pharmacokinetic studies were performed in six adult female chimpanzees. Two chimpanzees received 1-mg/kg IV dose of compound 22 formulated in 5% dextrose (60-minute infusion). Two chimpanzees received 10-mg/kg oral dose of compound 22 formulated in 5% citric acid (oral bolus). Two chimpanzees received 1-mg/kg IV dose of anidulafungin formulated as package label (5% dextrose, 60-minute infusion). Plasma samples were collected from all chimps for 10 days to 22 days. […]
*1 amine or outer side, *2 acyl side, *3 side chain or, on linkers, in order; H or OH if unused. Where a SMILES comes first, the peptide text is derived from it. Bridges are numbered along the chain shown (N, C = ends). [ ]: non-standard residue; d: D form. The star is where a group is joined. pTerphenylCO(4''-OnC5H11) = CCCCCOc1ccc(-c2ccc(-c3ccc(C(=O)*)cc3)cc2)cc1; Orn(4R-OH,5R-OH) = O=C([C@H](C[C@@H](O)[C@@H](O)N[*:3])N[*:1])[*:2]; hTyr(3S-OH,4S-OH) = N[C@H](C(=O)O)[C@H](O)[C@@H](O)c1ccc(O)cc1; Pro(3S-OH,4S-Me) = C[C@H]1CN[C@H](C(=O)O)[C@H]1O; Hyp = O=C(O)[C@@H]1C[C@@H](O)CN1
assay.metric: clearance (mL/min/kg)
Report as a plain number; the unit mL/min/kg is understood.

Request: I am curious: what clearance value has been reported for CCCCCOc1ccc(-c2ccc(-c3ccc(C(=O)N[C@H]4C[C@@H](O)[C@@H](O)NC(=O)[C@@H]5[C@@H](O)[C@@H](C)CN5C(=O)[C@H]([C@@H](C)O)NC(=O)[C@H]([C@H](O)[C@@H](O)c5ccc(O)cc5)NC(=O)[C@@H]5C[C@@H](O)CN5C(=O)[C@H]([C@@H](C)O)NC4=O)cc3)cc2)cc1 [Anidulafungin, anidulafungin, reference compound] ({pTerphenylCO(4''-OnC5H11)}-[Orn(4R-OH,5R-OH)]T[Hyp][hTyr(3S-OH,4S-OH)]T[Pro(3S-OH,4S-Me)]; lactam 1-C) ?
Result: 0.417

* * *

Quick list: Mean clearance per entry.
Test: Pharmacokinetics following intravenous administration in beagle dogs
Format: in vivo
Settings: 1.4 mg/kg IV slow bolus
*1 amine or outer side, *2 acyl side, *3 side chain or, on linkers, in order; H or OH if unused. Where a SMILES comes first, the peptide text is derived from it. Bridges are numbered along the chain shown (N, C = ends). [ ]: non-standard residue; d: D form. The star is where a group is joined. pTerphenylCO(4''-OnC5H11) = CCCCCOc1ccc(-c2ccc(-c3ccc(C(=O)*)cc3)cc2)cc1; Orn(4R-OH,5R-OH) = O=C([C@H](C[C@@H](O)[C@@H](O)N[*:3])N[*:1])[*:2]; hTyr(3S-OH,4S-OH) = N[C@H](C(=O)O)[C@H](O)[C@@H](O)c1ccc(O)cc1; Pro(3S-OH,4S-Me) = C[C@H]1CN[C@H](C(=O)O)[C@H]1O; Hyp = O=C(O)[C@@H]1C[C@@H](O)CN1
Write the number in mL/min/kg without appending the unit.

compound	unit.abbreviation	observed.value
CCCCCOc1ccc(-c2ccc(-c3ccc(C(=O)NC4CC(O)C(OCCOCCN)NC(=O)C5C(O)C(C)CN5C(=O)C(C(C)O)NC(=O)C(C(O)C(O)c5ccc(O)cc5)NC(=O)C5CC(O)CN5C(=O)C(C(C)O)NC4=O)cc3)cc2)cc1 (centres unmarked) [Compound 26]	mL/min/kg	0.219
CCCCCOc1ccc(-c2ccc(-c3ccc(C(=O)N[C@H]4C[C@@H](O)[C@@H](O)NC(=O)[C@@H]5[C@@H](O)[C@@H](C)CN5C(=O)[C@H]([C@@H](C)O)NC(=O)[C@H]([C@H](O)[C@@H](O)c5ccc(O)cc5)NC(=O)[C@@H]5C[C@@H](O)CN5C(=O)[C@H]([C@@H](C)O)NC4=O)cc3)cc2)cc1 [Anidulafungin, anidulafungin, reference compound] ({pTerphenylCO(4''-OnC5H11)}-[Orn(4R-OH,5R-OH)]T[Hyp][hTyr(3S-OH,4S-OH)]T[Pro(3S-OH,4S-Me)]; lactam 1-C)	mL/min/kg	0.785
CCCCCOc1ccc(-c2ccc(-c3ccc(C(=O)NC4CC(O)C(NCC[N+](C)(C)C)NC(=O)C5C(O)C(C)CN5C(=O)C(C(C)O)NC(=O)C(C(O)C(O)c5ccc(O)cc5)NC(=O)C5CC(O)CN5C(=O)C(C(C)O)NC4=O)cc3)cc2)cc1 (centres unmarked) [Compound 37]	mL/min/kg	0.365
CC(=O)[O-].CCCCCOc1ccc(-c2ccc(-c3ccc(C(=O)NC4CC(O)C(OCC[N+](C)(C)C)NC(=O)C5C(O)C(C)CN5C(=O)C(C(C)O)NC(=O)C(C(O)C(O)c5ccc(O)cc5)NC(=O)C5CC(O)CN5C(=O)C(C(C)O)NC4=O)cc3)cc2)cc1 (centres unmarked) [Compound 22]	mL/min/kg	0.301

Next compound, Mean clearance to be filled in.
Request: Need Mean clearance, item CCCCCOc1ccc(-c2ccc(-c3ccc(C(=O)NC4CC(O)C(NCCNCCO)NC(=O)C5C(O)C(C)CN5C(=O)C(C(C)O)NC(=O)C(C(O)C(O)c5ccc(O)cc5)NC(=O)C5CC(O)CN5C(=O)C(C(C)O)NC4=O)cc3)cc2)cc1 (centres unmarked) [Compound 39]
Result: 0.377

* * *

Catalogue of Mean clearance values
Assay: Pharmacokinetics following intravenous administration in beagle dogs
Format: in vivo
Conditions: 1.4 mg/kg IV slow bolus
Give a bare numeral; the unit mL/min/kg is implied.

molecule	Mean clearance (mL/min/kg)
CCCCCOc1ccc(-c2ccc(-c3ccc(C(=O)NC4CC(O)C(OCCOCCOC)NC(=O)C5C(O)C(C)CN5C(=O)C(C(C)O)NC(=O)C(C(O)C(O)c5ccc(O)cc5)NC(=O)C5CC(O)CN5C(=O)C(C(C)O)NC4=O)cc3)cc2)cc1 (centres unmarked) [Compound 19]	0.202

Now for a further molecule.
Request: Reported Mean clearance for CCCCCOc1ccc(-c2ccc(-c3ccc(C(=O)NC4CC(O)C(OCCOCCO)NC(=O)C5C(O)C(C)CN5C(=O)C(C(C)O)NC(=O)C(C(O)C(O)c5ccc(O)cc5)NC(=O)C5CC(O)CN5C(=O)C(C(C)O)NC4=O)cc3)cc2)cc1 (centres unmarked) [Compound 21] : what is it?
Result: 0.145

* * *

Assay: Pharmacokinetics following intravenous administration in beagle dogs
Format: in vivo
Details: 1.4 mg/kg IV slow bolus
*1 amine or outer side, *2 acyl side, *3 side chain or, on linkers, in order; H or OH if unused. Where a SMILES comes first, the peptide text is derived from it. Bridges are numbered along the chain shown (N, C = ends). [ ]: non-standard residue; d: D form. The star is where a group is joined. pTerphenylCO(4''-OnC5H11) = CCCCCOc1ccc(-c2ccc(-c3ccc(C(=O)*)cc3)cc2)cc1; Orn(4R-OH,5R-OH) = O=C([C@H](C[C@@H](O)[C@@H](O)N[*:3])N[*:1])[*:2]; hTyr(3S-OH,4S-OH) = N[C@H](C(=O)O)[C@H](O)[C@@H](O)c1ccc(O)cc1; Pro(3S-OH,4S-Me) = C[C@H]1CN[C@H](C(=O)O)[C@H]1O; Hyp = O=C(O)[C@@H]1C[C@@H](O)CN1
assay.metric: T1/2
Just so you know, I need the unit written after the number.

compound	observed.value
CCCCCOc1ccc(-c2ccc(-c3ccc(C(=O)NC4CC(O)C(OCCOCCOC)NC(=O)C5C(O)C(C)CN5C(=O)C(C(C)O)NC(=O)C(C(O)C(O)c5ccc(O)cc5)NC(=O)C5CC(O)CN5C(=O)C(C(C)O)NC4=O)cc3)cc2)cc1 (stereo not shown)	18.9 h
CCCCCOc1ccc(-c2ccc(-c3ccc(C(=O)NC4CC(O)C(OCCOCCN)NC(=O)C5C(O)C(C)CN5C(=O)C(C(C)O)NC(=O)C(C(O)C(O)c5ccc(O)cc5)NC(=O)C5CC(O)CN5C(=O)C(C(C)O)NC4=O)cc3)cc2)cc1 (stereo not shown)	33.7 h
CCCCCOc1ccc(-c2ccc(-c3ccc(C(=O)N[C@H]4C[C@@H](O)[C@@H](O)NC(=O)[C@@H]5[C@@H](O)[C@@H](C)CN5C(=O)[C@H]([C@@H](C)O)NC(=O)[C@H]([C@H](O)[C@@H](O)c5ccc(O)cc5)NC(=O)[C@@H]5C[C@@H](O)CN5C(=O)[C@H]([C@@H](C)O)NC4=O)cc3)cc2)cc1 [Anidulafungin, anidulafungin, reference compound] ({pTerphenylCO(4''-OnC5H11)}-[Orn(4R-OH,5R-OH)]T[Hyp][hTyr(3S-OH,4S-OH)]T[Pro(3S-OH,4S-Me)]; lactam 1-C)	11.6 h

Here's the next entry for you.
Request: If you can, please state the reported T1/2 value of CCCCCOc1ccc(-c2ccc(-c3ccc(C(=O)NC4CC(O)C(OCCOCCO)NC(=O)C5C(O)C(C)CN5C(=O)C(C(C)O)NC(=O)C(C(O)C(O)c5ccc(O)cc5)NC(=O)C5CC(O)CN5C(=O)C(C(C)O)NC4=O)cc3)cc2)cc1 (stereo not shown) .
Result: 28.9 h
